experiment: M. tuberculosis growth inhibition, HTS (AID 449762);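 also: bacterial growth assessed after seven days of incubation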; details: M. tuberculosis H37Rv growth inhibition, 7H9 media; at 25 µM; hits give high values
The whole screen tested about 330,000 compounds, of which about 1,900 (0.58%) were called active. Inconclusive results (about 4%) are left out. Only a sample is shown. Results with a measured potency or affinity are listed apart.
Recorded inhibition by entry
Please respond with the number in % and leave the unit unwritten.

Past entries and their recorded results:
# COMPOUND, inhibition [%]
records = [
    ("O=C(Nc1ccc(C(F)(F)F)cc1)c1ccc(NC(=O)C2CCCO2)cc1 (stereo unspecified)", -5.77),
    ("O=C(CSc1nnc(CNC(=O)c2ccccc2)o1)c1ccc(Cl)cc1", 1.96),
    ("COc1ccc(NC(=O)c2c(Cl)nc3ccccn23)cc1", 9.69),
]

Given Cc1ccc(-c2nc3ccccc3[nH]2)cc1NC(=O)/C=C/c1ccco1 , respond with its inhibition.
7.41

Given C=CCc1c(C)nc(C)nc1N/N=C/c1ccccc1 , respond with its inhibition.
-2.25

Given O=C(CN1C(=O)/C(=C/c2ccccc2F)Sc2ccccc21)NCc1cccnc1 , respond with its inhibition.
14.8

Given CCOc1ccc(NC(=O)CN(C)C(=O)c2c(-c3ccccc3Cl)noc2C)cc1OCC , respond with its inhibition.
1.46

Given Cc1c(C(=O)NC(=S)NCC(C)C)oc2ccccc12 , respond with its inhibition.
-6.41

Given Cc1ccc(NC(=O)CSCC(=O)N=c2sccn2C)cc1 , respond with its inhibition.
-9.96

Given CCCCNC(=S)N(C)/N=C/c1ccc(OCC(=O)Nc2ccc(OC)cc2)c(OC)c1 , respond with its inhibition.
5.57

Given Cc1c(Cl)cccc1NC(=O)CSc1nnnn1C , respond with its inhibition.
1.96
